From: patent US12246076B2

Procedure text: in vivo
Test settings: male, NRG, mouse, iv, total radioactivity, Biodistribution Heart Mean
Outcome measure: tissue uptake at 1 h
Quick note: number first, unit second.

// query tissue uptake at 1 h value for entry CC(C)C[C@H](NC(=O)[C@H](Cc1c[nH]cn1)N(C)C(=O)CNC(=O)[C@@H](NC(=O)[C@H](C)NC(=O)[C@H](Cc1c[nH]c2ccccc12)NC(=O)[C@H](CCC(N)=O)NC(=O)[C@@H](Cc1ccccc1)NC(=O)CN1CCC(NC(=O)CN2CCN(CC(=O)O)CCN(CC(=O)O)CCN(CC(=O)O)CC2)CC1)C(C)C)C(=O)N1CSC[C@H]1C(N)=O [^68Ga-LW01107, metal not drawn] 0.11 %ID/g

----------
Procedure text: in vivo
Test settings: male, NRG, mouse, iv, total radioactivity, Biodistribution Pancreas Mean
Numbered stars: 1 amine (or outer) side, 2 acyl side, 3 side chain; on linkers, the order of the positions; unused ones are H or OH. Square brackets hold non-standard residues; d marks the D form. Peptide text beside a SMILES is read from it. * marks the point of attachment. DOTA = O=C(O)CN1CCN(CC(=O)O)CCN(CC(=O)*)CCN(CC(=O)O)CC1; NMeH = CN[C@@H](Cc1c[nH]cn1)C(=O)O; X1 = O=C(CN1CCC(N[*:1])CC1)[*:2]; Tle = CC(C)(C)[C@H](N)C(=O)O; Thz = O=C(O)[C@@H]1CSCN1
Entries and their tissue uptake at 1 h
Provide the reading as a plain figure in %ID/g.

Use these answered entries as a reference point.
Compound: CC(C)C[C@H](NC(=O)[C@H](Cc1cnc[nH]1)N(C)C(=O)CNC(=O)[C@@H](NC(=O)[C@H](C)NC(=O)[C@H](Cc1c[nH]c2ccccc12)NC(=O)[C@H](CCC(N)=O)NC(=O)[C@@H](Cc1ccccc1)NC(=O)CN1CCC(NC(=O)CN2CCN(CC(=O)O)CCN(CC(=O)O)CCN(CC(=O)O)CC2)CC1)C(C)(C)C)C(=O)N1CSC[C@H]1C(N)=O [^68Ga-LW01110, metal not drawn]
Unit text: %ID/g
Measured number: 8.99
//
Compound: CC(C)C[C@H](NC(=O)[C@H](Cc1c[nH]cn1)NC(=O)CNC(=O)[C@@H](NC(=O)[C@H](C)NC(=O)[C@H](Cc1c[nH]c2ccccc12)NC(=O)[C@H](CCC(N)=O)NC(=O)[C@@H](Cc1ccccc1)NC(=O)CN1CCC(NC(=O)CN2CCN(CC(=O)O)CCN(CC(=O)O)CCN(CC(=O)O)CC2)CC1)C(C)(C)C)C(=O)N1CSC[C@H]1C(N)=O [^68Ga-LW01108, metal not drawn]
Unit text: %ID/g
Measured number: 9.32
//
Compound: CC(C)C[C@H](NC(=O)[C@H](Cc1cnc[nH]1)N(C)C(=O)CNC(=O)[C@@H](NC(=O)[C@H](C)NC(=O)[C@H](Cc1c[nH]c2ccccc12)NC(=O)[C@H](Cc1c[nH]cn1)NC(=O)[C@@H](Cc1ccccc1)NC(=O)CN1CCC(NC(=O)CN2CCN(CC(=O)O)CCN(CC(=O)O)CCN(CC(=O)O)CC2)CC1)C(C)(C)C)C(=O)N1CSC[C@H]1C(N)=O [^68Ga-LW01142, metal not drawn] ({DOTA}-[X1][dF]HWA[Tle]G[NMeH]L[Thz]-NH2)
Unit text: %ID/g
Measured number: 4.4

// query tissue uptake at 1 h value for entry CC(C)C[C@H](NC(=O)[C@H](Cc1c[nH]cn1)N(C)C(=O)CNC(=O)[C@@H](NC(=O)[C@H](C)NC(=O)[C@H](Cc1c[nH]c2ccccc12)NC(=O)[C@H](CCC(N)=O)NC(=O)[C@@H](Cc1ccccc1)NC(=O)CN1CCC(NC(=O)CN2CCN(CC(=O)O)CCN(CC(=O)O)CCN(CC(=O)O)CC2)CC1)C(C)C)C(=O)N1CSC[C@H]1C(N)=O [^68Ga-LW01107, metal not drawn] 0.39
